Cited source: PubChem BioAssay (NCI)

Let's look at some molecules and their measured TGI.
- System: BT-549 breast
- PROTOCOL: NCI tumour cell line growth inhibition, 48 h
Reply numerically in µM, unit not repeated.

Solved cases (5 shown):
• O=[N+]([O-])c1ccc(NNN=Nc2ccc(-c3nc4ccccc4s3)cc2)c([N+](=O)[O-])c1 = 58.7
• CCC[CH2][Sn]1([CH2]CCC)[O]C2C(CO)OC(n3ccc(N)nc3=O)C2[O]1 (stereo not given) = 2.73
• CCOc1ccc(N/C(=C(/C(Cl)=C(/Cl)NC(C)(C)C)[N+](=O)[O-])n2nnc3ccccc32)cc1 = 41.5
• COC(=O)C1=C(C)NC(C)=C(C(=O)OCC(C)C)C1c1ccccc1[N+](=O)[O-] (stereo not given) = 17.1
• O=C(c1cc2c(c3ccccc13)NC1(CCCCC1)N=C2C(F)(F)F)C(F)(F)F = 15.8

So what does the record say about TGI for C[C@@H]1CC[C@@]2(OC1)O[C@H]1C[C@H]3[C@@H]4CC[C@H]5C[C@@H](OC6OC(CO)C(OC7OC(CO)C(O)C(OC8OCC(O)C(O)C8O)C7OC7OC(CO)C(O)C(O)C7O)C(O)C6O)[C@H](O)C[C@]5(C)[C@H]4CC[C@]3(C)[C@H]1[C@@H]2C (stereo not given in full) ?
7.47

So what does the record say about TGI for `COc1cc([N+](=O)[O-])c(OC)cc1-c1nc2sccn2c1/C=N/N=C(N)N` ?
42.2

So what does the record say about TGI for CCOC(=O)C1CCCCN1C(=O)c1ccc(Nc2cnc3cc(C(F)(F)F)ccc3n2)cc1 (stereo not given) ?
38.7

So what does the record say about TGI for `N#Cc1nc2c(S(=O)(=O)c3ccc(Cl)cc3)c(N)n(CCCN3CCOCC3)c2nc1C#N` ?
42

So what does the record say about TGI for `Fc1ccc(C(OCCN2CC3CCC(C2)N3CCCc2ccccc2)c2ccc(F)cc2)cc1` ?
24.8

So what does the record say about TGI for `O=c1c(O)c(-c2ccc(O)c(O)c2)oc2cc(O)cc(O)c12` ?
77.7

So what does the record say about TGI for `Cc1ccc(-c2csc(NC(=O)N3CCN(c4cc5c(cc4F)c(=O)c(C(=O)O)cn5C4CC4)CC3)n2)cc1` ?
2.65
